- experimentalDetails: Gamma critical micelle concentration of the compound by wilhelmy method
- Format: physicochemical
propertyName: gammaCMC (mN/meter)
# value in mN/meter; strip the unit string

CCCCCCCCCCCCOc1ccc(OC[C@H]2O[C@H](O)[C@H](O)[C@@H](O)[C@H]2O)cc1 = 54

# ---- query compound ----
input: Endpoint output: gammaCMC of CCCCCCCCCCCCOCC#CCOC[C@H]1O[C@H](O)[C@H](O)[C@@H](O)[C@H]1O . Value?
output: 35

---

- Tested on: Pseudomonas aeruginosa
- experimentalDetails: Antibacterial activity against Pseudomonas aeruginosa CIP A22 assessed as growth inhibition at 30 degC after 24 hrs by liquid broth dilution method
- Type: functional
- experimentalContext: CIP A22, 24 h
propertyName: MIC (µg/mL)
# value in µg/mL; strip the unit string

Consider the reported MIC for these compounds:
CCCCCCCCOCCCCOC[C@H]1O[C@H](O)[C@H](O)[C@@H](O)[C@H]1O = 62.5
CCCCCCCCOCC#CCOC[C@H]1O[C@H](O)[C@H](O)[C@@H](O)[C@H]1O = 125
CCCCCCCCOCC#CCOC[C@H]1O[C@@H]2OC(C)(C)O[C@@H]2[C@H]2OC(C)(C)O[C@H]21 = 62.5
CCCCCCCCCCCCOCCCCOC[C@H]1O[C@H](O)[C@H](O)[C@@H](O)[C@H]1O = 62.5
O=C(N[C@H](CO)[C@H](O)c1ccc([N+](=O)[O-])cc1)C(Cl)Cl [CHLORAMPHENICOL] = 1.95
CCCCCCCCCCCCOCC#CCOC[C@H]1O[C@H](O)[C@H](O)[C@@H](O)[C@H]1O = 62.5

# ---- query compound ----
input: Endpoint output: MIC of CCCCCCCCCCCCOc1ccc(OC[C@H]2O[C@H](O)[C@H](O)[C@@H](O)[C@H]2O)cc1 . Value?
output: 62.5

---

- Test system: Geobacillus stearothermophilus
- experimentalDetails: Antibacterial activity against Bacillus stearothermophilus ATTC 12980 assessed as growth inhibition at 30 degC after 24 hrs by liquid broth dilution method
- Assay type: functional
- experimentalContext: ATTC 12980, 24 h
propertyName: MIC (mg/L)
# value in mg/L; strip the unit string

CCCCCCCCOc1ccc(OC[C@H]2O[C@@H]3OC(C)(C)O[C@@H]3[C@H]3OC(C)(C)O[C@H]32)cc1 = 62.5
CCCCCCCCOCCCCOC[C@H]1O[C@H](O)[C@H](O)[C@@H](O)[C@H]1O = 62.5
CCCCCCCCOc1ccc(OC[C@H]2O[C@H](O)[C@H](O)[C@@H](O)[C@H]2O)cc1 = 62.5

# ---- query compound ----
input: Endpoint output: MIC of CCCCCCCCCCCCOc1ccc(OC[C@H]2O[C@@H]3OC(C)(C)O[C@@H]3[C@H]3OC(C)(C)O[C@H]32)cc1 . Value?
output: 62.5

---

Form field: MIC (one value per entry).
- Test system: Geobacillus stearothermophilus
- experimentalDetails: Antibacterial activity against Bacillus stearothermophilus ATTC 12980 assessed as growth inhibition at 30 degC after 24 hrs by liquid broth dilution method
- Assay type: functional
- experimentalContext: ATTC 12980, 24 h

CCCCCCCCCCCCOc1ccc(OC[C@H]2O[C@H](O)[C@H](O)[C@@H](O)[C@H]2O)cc1 = 62.5 µg/mL

input: Endpoint output: MIC of CCCCCCCCCCCCOCC#CCOC[C@H]1O[C@H](O)[C@H](O)[C@@H](O)[C@H]1O . Value?
output: 7.81 µg/mL

input: Same read-out for CCCCCCCCOCC#CCOC[C@H]1O[C@@H]2OC(C)(C)O[C@@H]2[C@H]2OC(C)(C)O[C@H]21 ?
output: 62.5 µg/mL

input: Same read-out for CCCCCCCCOCC#CCOC[C@H]1O[C@H](O)[C@H](O)[C@@H](O)[C@H]1O ?
output: 62.5 µg/mL

input: Same read-out for CCCCCCCCCCCCOC[C@H]1O[C@@H]2OC(C)(C)O[C@@H]2[C@H]2OC(C)(C)O[C@H]21 ?
output: ≥ 250 µg/mL

input: Same read-out for CCCCCCCCOCCCCOC[C@H]1O[C@@H]2OC(C)(C)O[C@@H]2[C@H]2OC(C)(C)O[C@H]21 ?
output: 62.5 µg/mL

input: Same read-out for CCCCCCCCOC[C@H]1O[C@@H]2OC(C)(C)O[C@@H]2[C@H]2OC(C)(C)O[C@H]21 ?
output: ≥ 250 µg/mL

FYI, the data here is from ChEMBL document CHEMBL2331520.
